This collection of values is drawn from patent US20230203060A1.

target: KRAS G12C (Homo sapiens, UniProt P01116, G12C); test: KRAS G12C NEA-HTRF experiment (SOS1-catalyzed displacement of GDP by GTP)
Sequence (P01116 1-188 isoform P01116-2 G12C): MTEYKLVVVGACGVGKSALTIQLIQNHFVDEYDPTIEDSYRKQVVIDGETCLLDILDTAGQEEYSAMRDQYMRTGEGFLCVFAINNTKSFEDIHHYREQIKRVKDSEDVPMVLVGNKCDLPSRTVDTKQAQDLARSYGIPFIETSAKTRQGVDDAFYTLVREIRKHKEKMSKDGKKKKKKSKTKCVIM
IC50 strictly under 100 nM means fulfilled; at 100 nM or over means not fulfilled.

Example results:
INSERT INTO results (molecule, tgt, assigned_label) VALUES
  ('C=CC(=O)N1CCN2C(=O)c3c(N4CC(C)(O)CC4(C)C)nc(-c4c(O)cccc4F)c(Cl)c3OC[C@H]2C1 (stereo partly shown) [Z243]', 'KRAS G12C (Homo sapiens, UniProt P01116, G12C)', 'fulfilled'),
  ('C=CC(=O)N1CCN2C(=O)c3c(N4CCN(C)C[C@@H]4C)nc(-c4ccccc4Cl)c(Cl)c3OC[C@H]2C1 [Z461]', 'KRAS G12C (Homo sapiens, UniProt P01116, G12C)', 'not fulfilled'),
  ('C=CC(=O)N1CCN2C(=O)c3c(N4C[C@@H](O)CC4(C)C)nc(-c4c(F)ccc(F)c4O)c(F)c3OC[C@H]2C1 (single isomer, unassigned) [Z449-1]', 'KRAS G12C (Homo sapiens, UniProt P01116, G12C)', 'fulfilled'),
  ('C=CC(=O)N1CCN2C(=O)c3c(N4C[C@H](N5CC(F)C5)CC4(C)C)nc(-c4ccccc4F)c(F)c3OC[C@H]2C1 [Z654-2]', 'KRAS G12C (Homo sapiens, UniProt P01116, G12C)', 'not fulfilled'),
  ('C=CC(=O)N1CCN2C(=O)c3c(NC(C)(C)C)nc(-c4ccccc4F)c(Cl)c3OC[C@H]2C1 [Z457]', 'KRAS G12C (Homo sapiens, UniProt P01116, G12C)', 'not fulfilled'),
  ('C=CC(=O)N1CCN2C(=O)c3c(N4CC(N(C)C)CC4(C)C)nc(-c4ccccc4F)c(Cl)c3OC[C@H]2C1 (single isomer, unassigned) [Z453-2]', 'KRAS G12C (Homo sapiens, UniProt P01116, G12C)', 'not fulfilled'),
  ('C=CC(=O)N1CCN2C(=O)c3c(N4CCN(C)[C@@H](C)[C@H]4C)nc(-c4ccccc4F)c(Cl)c3OC[C@H]2C1 (single isomer, unassigned) [Z465-1]', 'KRAS G12C (Homo sapiens, UniProt P01116, G12C)', 'not fulfilled'),
  ('C=CC(=O)N1CCN2C(=O)c3c(N4CCN(C5CC5)C[C@@H]4C)nc(-c4c(O)cccc4F)c(Cl)c3OC[C@H]2C1 [Z312-1]', 'KRAS G12C (Homo sapiens, UniProt P01116, G12C)', 'not fulfilled');

Could you please tell me whether IC50 recorded for C=CC(=O)N1CCN2C(=O)c3c(N4CCN(CCOC)C(C)(C)C4)nc(-c4c(O)cccc4F)c(Cl)c3OC[C@H]2C1 [Z321] is less than 100 nM?
fulfilled

Cool, now C=CC(=O)N1CCN2C(=O)c3c(N4CCN(C)C[C@@H]4C)nc(-c4c(F)cccc4Cl)c(Cl)c3OC[C@H]2C1 [Z547]
not fulfilled

Try this molecule next: C=CC(=O)N1CCN2C(=O)c3c(N4C[C@@H](N(C)CCOC)CC4(C)C)nc(-c4ccccc4F)c(Cl)c3OC[C@H]2C1 (single isomer, unassigned) [Z406-2]
not fulfilled

Now this one: C=CC(=O)N1CCN2C(=O)c3c(N4CCN(C)C[C@@H]4C)nc(-c4c(O)cccc4Cl)c(Cl)c3OC[C@H]2C1 (single isomer, unassigned) [Z455-2]
fulfilled
